Every entry's value here was drawn from paper PMC6832524.

- System: L. infantum (MHOM/BR/2002/LPC-RPV) promastigotes
- Test Method Notes: in vitro anti-Leishmania activity, promastigotes, resazurin
- Format: cell-based, Leishmania infantum
- Condition Info: Leishmania infantum; Table 1S; read-out: IC50 ± %SD (µM) promastigotes L. infantum
Measurement Type: IC50

Compound | System Name | Measurement Type | Val
CC(/C=C/C(=O)[C@H]1CC[C@H]2[C@@H]3CC=C4CC(O)CC[C@]4(C)[C@H]3CC[C@]12C)=C\c1ccco1 (stereo partly shown) [Compound 16] | L. infantum (MHOM/BR/2002/LPC-RPV) promastigotes | IC50 | > 25 µM

====

Below is a list of entries, each paired with its recorded melting point value.

Compound | melting point
C[C@]12CC[C@H]3[C@@H](CC=C4CC(O)CC[C@@]43C)[C@@H]1CC[C@@H]2C(=O)/C=C/c1cccc(Br)c1 (stereo partly drawn) | 159 to 161 °C
C[C@]12CC[C@H]3[C@@H](CC=C4CC(O)CC[C@@]43C)[C@@H]1CC[C@@H]2C(=O)/C=C/C=C/c1ccco1 (stereo partly drawn) | 100 to 103 °C
C[C@]12CC[C@H]3[C@@H](CC=C4CC(O)CC[C@@]43C)[C@@H]1CC[C@@H]2C(=O)/C=C/c1ccc(Cl)cc1 (stereo partly drawn) | 159 to 161 °C
C[C@]12CC[C@H]3[C@@H](CC=C4CC(O)CC[C@@]43C)[C@@H]1CC[C@@H]2C(=O)/C=C/C=C/c1ccccc1 (stereo partly drawn) | 116 to 119 °C
C[C@]12CC[C@H]3[C@@H](CC=C4CC(O)CC[C@@]43C)[C@@H]1CC[C@@H]2C(=O)/C=C/c1cccnc1Br (stereo partly drawn) | 193 to 195 °C
CC(/C=C/C(=O)[C@H]1CC[C@H]2[C@@H]3CC=C4CC(O)CC[C@]4(C)[C@H]3CC[C@]12C)=C\c1ccco1 (stereo partly drawn) | 110 to 113 °C
C/C(=N/N=c1\[nH]c(C(=O)O)cs1)[C@@H]1CC[C@H]2[C@@H]3CC=C4CC(O)CC[C@]4(C)[C@H]3CC[C@]12C (stereo partly drawn) | 281 to 283 °C
C=CCn1c(-c2ccc(Br)cc2)csc1=NN=C(C)C1CCC2C3CC=C4CC(O)CCC4(C)C3CCC12C (stereo not drawn) | 179 to 183 °C
C=CCNC(=S)N/N=C(\C)[C@H]1CC[C@H]2[C@@H]3CC=C4CC(O)CC[C@]4(C)[C@H]3CC[C@]12C (stereo partly drawn) | 229 to 233 °C
C[C@]12CC[C@H]3[C@@H](CC=C4CC(O)CC[C@@]43C)[C@@H]1CC[C@@H]2C(=O)/C=C/c1ccccc1Cl (stereo partly drawn) | 149 to 151 °C
C/C(=N\NC(=S)Nc1ccccc1)[C@H]1CC[C@H]2[C@@H]3CC=C4CC(O)CC[C@]4(C)[C@H]3CC[C@]12C (stereo partly drawn) | 215 to 217 °C
C=CCn1c(C(=O)O)cs/c1=N/N=C(/C)[C@@H]1CC[C@H]2[C@@H]3CC=C4CC(O)CC[C@]4(C)[C@H]3CC[C@]12C (stereo partly drawn) | 145 to 149 °C
